ASSAY_COMMENT: Assessment of pH solubility of crystalline salts in buffers
Assay type: physicochemical
EXPERIMENTAL_SETUP: pH 1.0
Structures can show the parent of a compound that is named as a salt.
OUTCOME_MEASURE: Solubility (µg/mL)

CC[C@@H](c1ccccc1)N1Cc2cc3c(cc2C[C@H]1C(=O)N[C@@H](Cc1ccc(-c2ccnc(C)c2C)cc1)C(=O)O)OC[C@H](c1ccc(OCc2ccc(Cl)c(Cl)c2)cc1)O3 [Crystal form B of hydrochloride] = 381

P: CC[C@@H](c1ccccc1)N1Cc2cc3c(cc2C[C@H]1C(=O)N[C@@H](Cc1ccc(-c2ccnc(C)c2C)cc1)C(=O)O)OC[C@H](c1ccc(OCc2ccc(Cl)c(Cl)c2)cc1)O3 [Crystal form C of hydrobromide]
Q: CC[C@@H](c1ccccc1)N1Cc2cc3c(cc2C[C@H]1C(=O)N[C@@H](Cc1ccc(-c2ccnc(C)c2C)cc1)C(=O)O)OC[C@H](c1ccc(OCc2ccc(Cl)c(Cl)c2)cc1)O3 [Crystal form C of p-toluenesulfonate]
R: CC[C@@H](c1ccccc1)N1Cc2cc3c(cc2C[C@H]1C(=O)N[C@@H](Cc1ccc(-c2ccnc(C)c2C)cc1)C(=O)O)OC[C@H](c1ccc(OCc2ccc(Cl)c(Cl)c2)cc1)O3 [Crystal form C of sulfate]
(Q) Put the items in sequence by Solubility, from largest down. Record the ranking as a list of labels in the requested order.
(A) Q, R, P
